Target: human GLP-1 receptor (Homo sapiens)
Construct: host or cells: CHO-K1
Sequence (P43220 24-463): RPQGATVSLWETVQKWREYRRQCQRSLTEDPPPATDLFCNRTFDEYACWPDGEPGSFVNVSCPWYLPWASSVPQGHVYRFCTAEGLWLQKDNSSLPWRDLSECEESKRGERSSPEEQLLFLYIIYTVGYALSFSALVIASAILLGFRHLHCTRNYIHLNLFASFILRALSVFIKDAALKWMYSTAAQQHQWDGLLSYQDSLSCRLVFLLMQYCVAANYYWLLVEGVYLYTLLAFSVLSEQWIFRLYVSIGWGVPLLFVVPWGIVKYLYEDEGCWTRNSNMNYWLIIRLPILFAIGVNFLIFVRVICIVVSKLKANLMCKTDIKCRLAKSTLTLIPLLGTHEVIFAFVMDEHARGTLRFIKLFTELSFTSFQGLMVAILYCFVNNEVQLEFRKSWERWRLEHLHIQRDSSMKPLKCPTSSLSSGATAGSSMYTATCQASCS
Experiment: cAMP activity test (cAMP dynamic HTRF kit) in CHO-K1/GLP-1 receptor-expressing cells
Format: cell-based
Settings: cAMP activity, CHO-K1/GLP-1 receptor-expressing cells; read-out: EC50
Method: The next day, the medium was removed, and a 50 uL of HBSS medium containing 0.1% BSA, 0.5 mM IBMX, and 5 mM HEPES was added to each well. […] The cAMP activity was measured according to the manufacturer's instructions using the cAMP dynamic HTRF kit (Cisbio, 62AM4PEC). […] Intracellular cAMP competes with cAMP-d2 for anti-cAMP cryptate, and the measured signal of fluorescence resonance energy transfer (FRET) is inversely proportional to intracellular cAMP.
outcome measure: EC50 (nM)

Below are worked cases with known answers.
{"compound": "O=C(O)c1ccc2nc(Cc3ccc(-c4cccc(OCc5ccc(Cl)cc5F)n4)cc3F)n(CCF)c2c1", "unit name": "nM", "EC50": 72}
{"compound": "O=C(O)c1ccc2nc(Cc3ccc(-c4cccc(OCc5ccc(Cl)c(F)c5)n4)c(F)c3)n(CC3CCCO3)c2c1 (stereo not shown)", "unit name": "nM", "EC50": 70}
{"compound": "COc1cccc(COc2cccc(-c3ccc(Cc4nc5ccc(C(=O)O)cc5n4CC4CCCO4)c(F)c3)n2)c1 (stereo not shown)", "unit name": "nM", "EC50": 210}
{"compound": "Cc1cc(-c2cccc(OCc3ccc(Cl)cc3F)n2)ccc1Cc1nc2ccc(C(=O)O)cc2n1CC1CCCO1 (stereo not shown)", "unit name": "nM", "EC50": 31}
{"compound": "O=C(O)c1ccc2nc(Cc3ccc(-c4cccc(OCc5cccnc5)n4)c(F)c3)n(C[C@@H]3CCO3)c2c1", "unit name": "nM", "EC50": 490}

a = O=C(O)c1ccc2nc(Cc3ccc(-c4cccc(OCc5ccccc5)n4)cc3F)n(CC3CCCO3)c2c1 (stereo not shown)
b = Cc1ccc(COc2cccc(-c3ccc(Cc4nc5ccc(C(=O)O)cc5n4CC4CCCO4)c(F)c3)n2)cc1 (stereo not shown)
Exercise: Between a and b , whose measured EC50 reads higher? Selection: enter the item's label.
Key: a
(a: 160 nM, b: 38 nM)

P = O=C(O)c1ccc2nc(Cc3ccc(-c4cccc(OCc5ccc(Cl)cc5F)n4)c(F)c3)n(CCF)c2c1
Q = O=C(O)c1ccc2nc(Cc3ccc(-c4cccc(OCc5ccc(Cl)cc5F)n4)c(F)c3)n(Cc3cnco3)c2c1
R = O=C(O)c1ccc2nc(Cc3ccc(-c4cccc(OCc5ccc(C(F)(F)F)cc5)n4)c(F)c3)n(C[C@@H]3CCO3)c2c1
Exercise: # rank_down: sort by EC50, max first Form field (ranking): labels in requested order.
Key: P, R, Q
(P: 210 nM, R: 15 nM, Q: 9 nM)
